Target or system: Glucose transporter (Leishmania mexicana) (UniProt O61059)
Procedure summary: ST_JUDE_LEISH: Cytotoxicity at 2uM final concentration against transgenic Leishmania Mexicana promastigotes LmGT2 that are glucose transport deficient and complemented with the L. Mexicana glucose transporter 2. Activity is measured by DNA content using SYBR green in vitro
Assay type: functional
Readout name: inhibition
Write the numeric value and append its unit.

Recorded inhibition for CCc1cccc2c(C#N)cn(CC(=O)NCCc3ccccc3)c12 , please?
9.25%

Recorded inhibition for COc1ccc(Nc2nc(N3CCCC3)c3ccccc3n2)cc1 , please?
14.3%

Recorded inhibition for N#Cc1ccccc1S(=O)(=O)N1CCCC(CNC(=O)[C@H](CC2CCCCC2)NC(=O)c2cc3ccccc3s2)C1 (stereo partly specified) , please?
0.55%

Recorded inhibition for CC(C)C1C(=O)N(S(C)(=O)=O)C2CCN(C(=O)c3ccc(CN4CCCCC4)c([N+](=O)[O-])c3)C12 (stereo unspecified) , please?
-1.4%

Recorded inhibition for Cc1occc1C(=O)Nc1nc(-c2ccccn2)nc2ccsc12 , please?
70%

Recorded inhibition for Cc1cccc2nc(-c3ccc(-c4ccc(CN5CCCCC5)cc4)s3)[nH]c12 , please?
3.32%

---

Target or system: Solute carrier family 2, facilitated glucose transporter member 1 (Homo sapiens) (UniProt P11166)
Sequence (P11166 whole entry): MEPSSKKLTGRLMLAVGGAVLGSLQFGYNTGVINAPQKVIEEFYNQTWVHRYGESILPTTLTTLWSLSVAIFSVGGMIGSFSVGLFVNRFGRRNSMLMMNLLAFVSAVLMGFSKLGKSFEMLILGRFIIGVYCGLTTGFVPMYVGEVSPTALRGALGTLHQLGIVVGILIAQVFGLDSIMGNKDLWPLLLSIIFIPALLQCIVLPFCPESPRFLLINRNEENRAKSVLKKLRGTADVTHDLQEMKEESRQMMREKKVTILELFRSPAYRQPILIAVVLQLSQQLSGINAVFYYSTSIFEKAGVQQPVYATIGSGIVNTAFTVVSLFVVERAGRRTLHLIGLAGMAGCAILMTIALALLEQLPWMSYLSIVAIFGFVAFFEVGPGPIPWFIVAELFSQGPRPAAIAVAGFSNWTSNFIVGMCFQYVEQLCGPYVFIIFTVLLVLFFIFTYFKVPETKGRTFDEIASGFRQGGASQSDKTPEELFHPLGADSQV
Procedure summary: ST_JUDE_LEISH: Cytotoxicity at 2uM final concentration against transgenic Leishmania Mexicana promastigotes LmGLUT1 that are glucose transport deficient and complemented with the human glucose transporter GLUT1. Activity is measured by DNA content using SYBR green in vitro
Type: functional
Parameter: inhibition. Scope: all listed entries.
Answer format: numeric, % implied, no suffix.

Please review the entries below; each comes with its answer.
Recorded inhibition for CCOc1cc(C(=O)Nc2ccc3nc(N4CCN(C)CC4)cc(C)c3c2)cc(OCC)c1OCC , please?
3.11

Recorded inhibition for O=C(CCCCCNC(=O)c1ccc(O)c(-c2ccc(Cl)c(Cl)c2)c1)NCCN1CCCCC1 , please?
2.71

New cases:
Recorded inhibition for CC(C)NC(=O)c1cccc(-c2ccc(OCCN3CCCC3c3cc4ccccc4[nH]3)cc2)c1 (centres undefined) , please?
1.77

Recorded inhibition for Cc1cccc(-c2nc3[nH]c(=O)cc(NC(=O)C(C)C)n3n2)c1 , please?
-2.8

Recorded inhibition for Cc1noc(C)c1-c1ccc2c(Nc3ccc([N+](=O)[O-])cc3)c(C(N)=O)cnc2c1 , please?
-0.67

Recorded inhibition for C[C@H](Cc1ccc(CCc2ccc(C[C@@H](C)NC[C@H](O)c3cccc(Cl)c3)cc2)cc1)NC[C@H](O)c1cccc(Cl)c1 , please?
59.1

Recorded inhibition for CC(=O)c1ccc2nc[nH]c(=O)c2c1 , please?
99.2

Recorded inhibition for O=C(COc1cnc2ccccc2n1)Nc1ccccc1Sc1ccc(Cl)cc1 , please?
4.91

Recorded inhibition for CCC(=O)N(c1ccccc1)C1CCN(CCCC(NC(=O)c2cc(C(F)(F)F)cc(C(F)(F)F)c2)c2ccc(Cl)c(Cl)c2)CC1 (centres undefined) , please?
8.75

---

Target or system: Hexose transporter 1 (Plasmodium falciparum)
Procedure summary: ST_JUDE_LEISH: Cytotoxicity at 2uM final concentration against transgenic Leishmania Mexicana promastigotes LmPfHT that are glucose transport deficient and complemented with the Plasmodium falciparum hexose transporter. Activity is measured by DNA content using SYBR green in vitro
Assay type: functional
Readout name: inhibition (%)
Answer format: numeric, % implied, no suffix.

Recorded inhibition for COc1cc2c(cc1S(=O)(=O)c1ccc(OCc3ccc(Cl)cc3)cc1)CCN(Cc1ccc(NC(C)=O)s1)CC2 , please?
4.31

New cases:
Recorded inhibition for CC(C)C1=CC(=NOS(=O)(=O)c2ccccc2)C=C(C(C)C)C1=O , please?
4.11

Recorded inhibition for CCn1c(=O)c(C(=O)Nc2cc(Cl)c(OC)cc2OC)nc2ccccc21 , please?
9.32

Recorded inhibition for Cc1noc(C)c1-c1cccc(CNCc2ccc(-c3ccc(-c4nc5cccc(C)c5[nH]4)cc3)cc2)c1 , please?
0.15

Recorded inhibition for CN(C)c1ccc(CN2CCC(CNC(=O)c3cc(-c4ccccc4F)cs3)C2)cc1 (stereo not given) , please?
1.98

Recorded inhibition for COc1cc(OC)cc(-c2nn(-c3ccc([N+](=O)[O-])cc3C#N)c(=S)n2Cc2ccco2)c1 , please?
-1.55

Recorded inhibition for CCCCCC(C)N/C(=N/c1ccccc1Br)Nc1ccc(C#N)cc1O (stereo not given) , please?
1.33
